MEASUREMENT_TARGET: NOPr (Homo sapiens, UniProt P41146)
Sequence (P41146 whole entry): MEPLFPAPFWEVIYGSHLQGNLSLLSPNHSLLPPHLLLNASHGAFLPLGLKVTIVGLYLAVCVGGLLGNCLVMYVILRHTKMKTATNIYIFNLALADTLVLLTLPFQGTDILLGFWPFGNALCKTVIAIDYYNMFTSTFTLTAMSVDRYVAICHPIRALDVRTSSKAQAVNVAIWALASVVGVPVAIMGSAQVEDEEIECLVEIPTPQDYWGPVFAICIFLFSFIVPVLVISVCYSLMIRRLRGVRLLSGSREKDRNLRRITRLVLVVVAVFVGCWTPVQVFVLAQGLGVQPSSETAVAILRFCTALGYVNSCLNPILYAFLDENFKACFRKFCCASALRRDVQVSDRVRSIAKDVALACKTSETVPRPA
METHOD_DESCRIPTION: TR-FRET competition binding with tracers 13g and 13h, Lumi4-Tb SNAP-NOPr membranes
SETTINGS: 13h K i ± SEM (nM), tracer 13h (5 nM; 25 nM elsewhere in the source), 140 mM Na+, 100 μM Gpp(NH)p, 2 h 37 °C
MEASURE_NAME: Ki (nM)
The reply should contain only the number, in nM.

Can you look up the measured Ki of O=C(NCCCN1CCC2(CC1)OCc1ccccc12)[C@H]1CCCN1Cc1ccccc1 [C24] for me?
0.09
